Reported Quantum yield experimental by item:
# measurement-description: Photophysical property characterization (absorption/emission spectra, quantum yield)
# Type: physicochemical
# settings: MeCN
measurement-label: Quantum yield experimental

>>> df
                           structure_string           measurement_label  obs_value
0  COc1cc(OCc2ccccn2)ccc1/C=C/c1cc(/C=C/c2ccc3cc[nH]c3c2)[nH]n1  Quantum yield experimental     0.1223
1  COc1cc(OCc2ccccn2)ccc1/C=C/C1=[O+][B-](F)(F)OC(/C=C/c2ccc3cc[nH]c3c2)=C1  Quantum yield experimental     0.0063
2  Cc1ccc(Cl)cc1NC(=O)c1cc2c(=O)n3cccc(C)c3nc2n1C  Quantum yield experimental     0.2891
3  COC1=CC(c2cc3ccccc3[nH]2)=N/C1=C\c1[nH]c(C)cc1C  Quantum yield experimental     0.0069
